- System Name: human cloned 5-HT2C receptor, expressed in CHO cells (Homo sapiens, UniProt P28335)
- Construct: expressed in transfected cells; host or cells: CHO cells
- Sequence (P28335 33-458): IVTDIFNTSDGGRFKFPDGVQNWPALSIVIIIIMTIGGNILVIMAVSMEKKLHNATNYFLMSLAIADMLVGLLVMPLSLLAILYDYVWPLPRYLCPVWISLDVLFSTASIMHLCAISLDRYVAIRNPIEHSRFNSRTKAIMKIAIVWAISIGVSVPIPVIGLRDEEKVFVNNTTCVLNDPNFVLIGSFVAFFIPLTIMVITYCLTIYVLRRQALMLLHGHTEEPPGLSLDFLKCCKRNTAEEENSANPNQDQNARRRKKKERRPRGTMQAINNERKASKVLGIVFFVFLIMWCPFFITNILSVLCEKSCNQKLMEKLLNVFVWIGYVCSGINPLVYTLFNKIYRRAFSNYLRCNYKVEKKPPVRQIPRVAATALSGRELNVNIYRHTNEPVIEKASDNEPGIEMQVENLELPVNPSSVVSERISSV
- Experiment Summary: In vitro binding affinity for 5-HT2C receptor ([3H]mesulergine radioligand binding)
- Recorded Conditions: human cloned 5-HT2C receptor, read-out: 5-HT2C pIC50 (converted)
Sorting guide: entries reporting IC50 beneath 10 nM go in the yes (1) pile, the rest go in the no (0) pile.

Here's what some known entries look like.
[
  {
    "Molecule": "O=C(C1CCN(CC2CC3c4ccccc4Cc4ccc(F)cc4C3O2)CC1)N1CCC1 (stereo not shown) [Compound 200]",
    "Classification": "yes (1)"
  },
  {
    "Molecule": "CSc1ccc(NC(=O)C2CCN(CC3CC4c5ccccc5Cc5ccc(F)cc5C4O3)CC2)cc1 (stereo not shown) [Compound 183]",
    "Classification": "yes (1)"
  },
  {
    "Molecule": "O=C(Nc1ccccc1)OCC1CCN(CC2CC3c4ccccc4Cc4ccc(F)cc4C3O2)C1 (mixture of isomers) [Compound 22]",
    "Classification": "yes (1)"
  },
  {
    "Molecule": "CC(C)NC(=O)N1CCN(CC2CC3c4ccccc4Cc4ccc(F)cc4C3O2)CC1 (stereo not shown) [Compound 88]",
    "Classification": "yes (1)"
  }
]

Does the reported IC50 of OC1CCN(C[C@H]2C[C@@H]3c4ccccc4Cc4ccc(F)cc4[C@@H]3O2)CC1 [Compound 144] stay below 10 nM?
yes (1)

Does the reported IC50 of CCCOC(=O)NC1CCN(CC2CC3c4ccccc4Cc4ccc(F)cc4C3O2)CC1 (stereo not shown) [Compound 212] stay below 10 nM?
yes (1)

Does the reported IC50 of O=C(NC1CCN(CC2CC3c4ccccc4Cc4ccc(F)cc4C3O2)CC1)c1ccccc1Br (stereo not shown) [Compound 226] stay below 10 nM?
yes (1)

Does the reported IC50 of Cc1ccc(S(=O)(=O)N2CCN(CC3CC4c5ccccc5Cc5ccc(F)cc5C4O3)CC2)cc1 (stereo not shown) [Compound 107] stay below 10 nM?
no (0)

Does the reported IC50 of N#CCCNC(=O)C1CCN(CC2CC3c4ccccc4Cc4ccc(F)cc4C3O2)CC1 (stereo not shown) [Compound 174] stay below 10 nM?
yes (1)

Does the reported IC50 of Fc1ccc2c(c1)C1OC(CN3CCN(C(=S)Nc4ccccc4)CC3)CC1c1ccccc1C2 (stereo not shown) [Compound 115] stay below 10 nM?
no (0)

Does the reported IC50 of Fc1ccc2c(c1)C1OC(CN3CCC(NC(=S)Nc4cccnc4)CC3)CC1c1ccccc1C2 (stereo not shown) [Compound 254] stay below 10 nM?
no (0)

Does the reported IC50 of CC(=Cc1ccccc1)CN1CCN(CC2CC3c4ccccc4Cc4ccc(F)cc4C3O2)CC1 (stereo not shown) [Compound 49] stay below 10 nM?
no (0)

Does the reported IC50 of O=C(OC1CCN(CC2CC3c4ccccc4Cc4ccc(F)cc4C3O2)C1)C1CC1 (mixture of isomers) [Compound 13] stay below 10 nM?
yes (1)

Does the reported IC50 of CN(C)CCC1CN(C[C@H]2C[C@@H]3c4ccccc4Cc4ccc(F)cc4[C@@H]3O2)CCO1 (stereo partly shown) [Compound 132] stay below 10 nM?
no (0)

Does the reported IC50 of COc1ccc(C)c(NC(=O)C2CCN(CC3CC4c5ccccc5Cc5ccc(F)cc5C4O3)CC2)c1 (stereo not shown) [Compound 191] stay below 10 nM?
yes (1)

Does the reported IC50 of Fc1ccc2c(c1)C1OC(CN3CCN(c4ccccn4)CC3)CC1c1ccccc1C2 (stereo not shown) [Compound 117] stay below 10 nM?
yes (1)

Does the reported IC50 of Fc1ccc2c(c1)C1OC(CN3CCC(N4CCCCC4)CC3)CC1c1ccccc1C2 (stereo not shown) [Compound 172] stay below 10 nM?
no (0)

###

- System Name: human cloned 5-HT2A receptor, expressed in L929 cells (Homo sapiens, UniProt P28223)
- Construct: expressed in transfected cells; host or cells: L929 cells
- Experiment Summary: In vitro binding affinity for 5-HT2A receptor ([125I]R91150 radioligand binding)
- Recorded Conditions: human cloned 5-HT2A receptor in L929 cells, [125I]R91150; read-out: 5-HT2A pIC50 (converted)
Sorting guide: entries reporting IC50 beneath 6 nM go in the label 1 pile, the rest go in the label 0 pile.

[
  {
    "Molecule": "COc1ccc(N2CCN(CC3CC4c5ccccc5Cc5ccc(F)cc5C4O3)CC2)cc1 (stereo not drawn)",
    "Classification": "label 0"
  },
  {
    "Molecule": "Fc1cccc(OCC2CCN(CC3CC4c5ccccc5Cc5ccc(F)cc5C4O3)C2)c1 (stereo not drawn)",
    "Classification": "label 0"
  },
  {
    "Molecule": "Fc1ccc2c(c1)C1OC(CN3CCN(c4cnccn4)CC3)CC1c1ccccc1C2 (stereo not drawn)",
    "Classification": "label 1"
  }
]

Does the reported IC50 of CCNC(=O)OCC1CCN(CC2CC3c4ccccc4Cc4ccc(F)cc4C3O2)C1 (mixture of isomers) stay below 6 nM?
label 1

Does the reported IC50 of COC(=O)C(Cc1ccc(Cl)cc1)NC(=O)C1CCN(CC2CC3c4ccccc4Cc4ccc(F)cc4C3O2)CC1 (mixture of isomers) stay below 6 nM?
label 1

Does the reported IC50 of Fc1ccc2c(c1)C1OC(CN3CCN(c4ccccn4)CC3)CC1c1ccccc1C2 (stereo not drawn) stay below 6 nM?
label 1

Does the reported IC50 of O=C(NCCC(c1ccccc1)c1ccccc1)C1CCN(CC2CC3c4ccccc4Cc4ccc(F)cc4C3O2)CC1 (stereo not drawn) stay below 6 nM?
label 0

Does the reported IC50 of CC(C)NC(=O)N1CCN(CC2CC3c4ccccc4Cc4ccc(F)cc4C3O2)CC1 (stereo not drawn) stay below 6 nM?
label 1

Does the reported IC50 of `O=C(NC1CCCCCCC1)N1CCN(C[C@H]2C[C@@H]3c4ccccc4Cc4ccc(F)cc4[C@@H]3O2)CC1` stay below 6 nM?
label 1

Does the reported IC50 of CSc1nccc(N2CCN(CC3CC4c5ccccc5Cc5ccc(F)cc5C4O3)CC2)n1 (stereo not drawn) stay below 6 nM?
label 0

Does the reported IC50 of Fc1ccc2c(c1)C1OC(CN3CCN(Cc4cc5ccccc5o4)CC3)CC1c1ccccc1C2 (stereo not drawn) stay below 6 nM?
label 0

###

- System Name: human Dopamine D2L receptor (Homo sapiens)
- Construct: expressed in transfected cells; host or cells: CHO cells
- Sequence (P14416 whole entry): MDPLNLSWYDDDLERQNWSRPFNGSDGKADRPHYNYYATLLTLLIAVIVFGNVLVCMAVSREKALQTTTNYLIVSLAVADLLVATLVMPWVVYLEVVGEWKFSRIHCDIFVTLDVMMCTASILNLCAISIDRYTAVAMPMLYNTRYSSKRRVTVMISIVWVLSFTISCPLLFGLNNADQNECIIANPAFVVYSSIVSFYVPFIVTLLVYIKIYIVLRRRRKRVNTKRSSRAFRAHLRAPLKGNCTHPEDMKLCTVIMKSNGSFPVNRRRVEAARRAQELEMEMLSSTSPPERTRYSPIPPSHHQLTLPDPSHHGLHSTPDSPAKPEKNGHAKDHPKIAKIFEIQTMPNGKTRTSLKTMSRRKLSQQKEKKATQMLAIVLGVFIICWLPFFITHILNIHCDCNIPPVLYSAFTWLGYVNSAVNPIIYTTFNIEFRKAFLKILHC
- Experiment Summary: In vitro binding affinity for human D2L receptor ([3H]Spiperone binding)
- Recorded Conditions: human D2L receptor-transfected CHO cell membranes, read-out: D2L pIC50 (converted)
Sorting guide: entries reporting IC50 beneath 0.02 µM go in the true pile, the rest go in the false pile.

Here's what some known entries look like.
[
  {
    "Compound": "CC1(O)CCN(C[C@H]2C[C@@H]3c4ccccc4Cc4ccc(F)cc4[C@@H]3O2)C1 (some centres unmarked)",
    "Classification": "true"
  },
  {
    "Compound": "CCC(C)(C)NC(=O)N1CCN(CC2CC3c4ccccc4Cc4ccc(F)cc4C3O2)CC1 (centres unmarked)",
    "Classification": "false"
  },
  {
    "Compound": "Fc1ccc2c(c1)C1OC(CN3CCN(C(=S)NC4CCCCC4)CC3)CC1c1ccccc1C2 (centres unmarked)",
    "Classification": "false"
  },
  {
    "Compound": "COc1cc(C(=O)NC2CCN(CC3CC4c5ccccc5Cc5ccc(F)cc5C4O3)CC2)cc(OC)c1OC (centres unmarked)",
    "Classification": "true"
  },
  {
    "Compound": "CN1c2ccccc2C2CC(CN3CCC(O)C3)OC2c2ccccc21 (racemic)",
    "Classification": "false"
  },
  {
    "Compound": "O=C(NCc1cccc(C(F)(F)F)c1)N1CCN(CC2CC3c4ccccc4Cc4ccc(F)cc4C3O2)CC1 (centres unmarked)",
    "Classification": "true"
  }
]

Does the reported IC50 of COCC1CCCN1CC1CC2c3ccccc3Cc3ccc(F)cc3C2O1 (mixture of isomers) stay below 0.02 µM?
false

Does the reported IC50 of `CC(=O)OC1CCN(C[C@H]2C[C@@H]3c4ccccc4Cc4ccc(F)cc4[C@@H]3O2)CC1` stay below 0.02 µM?
true

###

- System Name: human Dopamine D2L receptor (Homo sapiens)
- Construct: expressed in transfected cells; host or cells: CHO cells
- Experiment Summary: In vitro binding affinity for human D2L receptor ([3H]Spiperone binding)
- Recorded Conditions: human D2L receptor-transfected CHO cell membranes, read-out: D2L pIC50 (converted)
Quantity: IC50 (nM)
Numbers only, in nM.

[
  {
    "Compound": "O=C(OC1CCN(CC2CC3c4ccccc4Cc4ccc(F)cc4C3O2)C1)C1CC1 (mixture of isomers)",
    "System Name": "human Dopamine D2L receptor (Homo sapiens)",
    "IC50 / nM": 3.47
  },
  {
    "Compound": "CN1c2ccccc2[C@H]2C[C@@H](CN3CCC(O)C3)O[C@@H]2c2ccccc21 (relative stereo)",
    "System Name": "human Dopamine D2L receptor (Homo sapiens)",
    "IC50 / nM": 2240
  },
  {
    "Compound": "Fc1ccc2c(c1)C1OC(CN3CCN(Cc4ccsc4)CC3)CC1c1ccccc1C2 (stereo not shown)",
    "System Name": "human Dopamine D2L receptor (Homo sapiens)",
    "IC50 / nM": 6.92
  }
]

Could you now consider this next compound?
Looking up O=[N+]([O-])c1ccc(CN2CCN(CC3CC4c5ccccc5Cc5ccc(F)cc5C4O3)CC2)cc1 (stereo not shown) , I see its IC50 listed as 18.6
